# tested_on: Tyrosine-protein kinase ABL1 [1-999,E255V] (Homo sapiens, UniProt P00519, E255V)
# Construct: 1-999
# experiment_summary: In Vitro Activity Assay
# setup_conditions: pH 7.5
pKd: −log10 of the molar value.
property_measured: pKd

# compound, tested_on, property_measured, val
measured = [
    ("Cc1ccc(NC(=O)c2cccc(C(F)(F)F)c2)cc1Nc1ncccc1-c1ncnc(Nc2ccc(OCCNC(=O)CCCCNC(=O)CCC3=[N+]4B(F)n5c(C)cc(C)c5C=C4C=C3)cc2)n1 [BODIPY-labeled probe, 4a]", "Tyrosine-protein kinase ABL1 [1-999,E255V] (Homo sapiens, UniProt P00519, E255V)", "pKd", 7.35),
]

* * *

Recorded IC50, one value per entry.
# tested_on: cAMP-dependent protein kinase catalytic subunit alpha (Homo sapiens, UniProt P17612)
# experiment_summary: In Vitro Activity Assay
# setup_conditions: pH 7.5
property_measured: IC50

# compound, val
measured = [
    ("Cc1ccc(NC(=O)c2cccc(C(F)(F)F)c2)cc1Nc1ncccc1-c1ncnc(Nc2ccc(OCCNC(=O)COCCOCCOCCOCCN)cc2)n1 [Amine compound, 12a]", "> 10 µM"),
    ("Cc1ccc(NC(=O)c2cccc(C(F)(F)F)c2)cc1Nc1ncccc1-c1cc(Nc2ccc(OCCNC(=O)COCCOCCOCCOCCN)cc2)ncn1 [Amine compound, 13a]", "> 10 µM"),
]

* * *

A short record of pIC50 observed with UniProt P00519 follows.
pIC50: −log10 of the molar value.

# compound, pIC50
measured = [
    ("Cc1ccc(NC(=O)c2cccc(C(F)(F)F)c2)cc1Nc1ncccc1-c1cc(Nc2ccc(OCCNC(=O)COCCOCCOCCOCCN)cc2)ncn1 [Amine compound, 13a]", 8.18),
    ("Cc1ccc(NC(=O)c2cccc(C(F)(F)F)c2)cc1Nc1ncccc1-c1ncnc(Nc2ccc(OCCNC(=O)COCCOCCOCCOCCN)cc2)n1 [Amine compound, 12a]", 8.18),
]

* * *

The following molecules are shown together with reported IC50 values.
# tested_on: Mitogen-activated protein kinase 14 (Homo sapiens, UniProt Q16539)
# Sequence (Q16539 whole entry): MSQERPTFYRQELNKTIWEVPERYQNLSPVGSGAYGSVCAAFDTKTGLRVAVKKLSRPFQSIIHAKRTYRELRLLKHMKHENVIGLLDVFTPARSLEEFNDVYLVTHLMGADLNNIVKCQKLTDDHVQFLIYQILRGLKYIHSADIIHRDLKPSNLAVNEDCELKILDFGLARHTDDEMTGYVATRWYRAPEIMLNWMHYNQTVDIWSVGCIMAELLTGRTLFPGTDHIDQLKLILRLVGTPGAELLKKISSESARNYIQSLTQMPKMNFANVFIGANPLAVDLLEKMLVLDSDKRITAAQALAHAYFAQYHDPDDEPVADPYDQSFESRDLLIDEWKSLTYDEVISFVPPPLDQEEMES
# experiment_summary: In Vitro Activity Assay
# setup_conditions: pH 7.5
# From the text: In vitro activity assay using various kinases.
property_measured: IC50

# molecule, property_measured, val
measured = [
    ("Cc1ccc(NC(=O)c2cccc(C(F)(F)F)c2)cc1Nc1ncccc1-c1ncnc(Nc2ccc(OCCNC(=O)CCCCNC(=O)CCC3=[N+]4B(F)n5c(C)cc(C)c5C=C4C=C3)cc2)n1 [BODIPY-labeled probe, 4a]", "IC50", "25.5 nM"),
    ("Cc1ccc(NC(=O)c2cccc(C(F)(F)F)c2)cc1Nc1ncccc1-c1cc(Nc2ccc(OCCNC(=O)COCCOCCOCCOCCN)cc2)ncn1 [Amine compound, 13a]", "IC50", "< 13 nM"),
    ("Cc1ccc(NC(=O)c2cccc(C(F)(F)F)c2)cc1Nc1ncccc1-c1ncnc(Nc2ccc(OCCNC(=O)COCCOCCOCCOCCN)cc2)n1 [Amine compound, 12a]", "IC50", "< 13 nM"),
]

* * *

# tested_on: Dual specificity protein kinase CLK1 (Homo sapiens, UniProt P49759)
# Sequence (P49759 whole entry): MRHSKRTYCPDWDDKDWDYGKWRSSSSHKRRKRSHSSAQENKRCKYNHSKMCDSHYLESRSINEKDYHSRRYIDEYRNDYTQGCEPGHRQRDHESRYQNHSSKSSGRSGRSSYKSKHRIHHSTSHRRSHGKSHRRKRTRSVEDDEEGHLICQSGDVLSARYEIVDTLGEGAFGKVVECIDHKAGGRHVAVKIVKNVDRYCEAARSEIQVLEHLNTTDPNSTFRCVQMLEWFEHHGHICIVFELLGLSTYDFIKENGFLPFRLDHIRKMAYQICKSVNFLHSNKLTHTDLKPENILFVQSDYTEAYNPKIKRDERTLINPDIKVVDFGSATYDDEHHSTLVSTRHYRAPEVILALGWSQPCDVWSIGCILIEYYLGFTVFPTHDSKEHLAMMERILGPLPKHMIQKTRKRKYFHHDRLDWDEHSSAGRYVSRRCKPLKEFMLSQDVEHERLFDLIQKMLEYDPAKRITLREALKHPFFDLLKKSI
property_measured: Kd

# molecule, val
data = [
    ("Cc1ccc(NC(=O)c2cccc(C(F)(F)F)c2)cc1Nc1ncccc1-c1ncnc(Nc2ccc(OCCNC(=O)CCCCNC(=O)CCC3=[N+]4B(F)n5c(C)cc(C)c5C=C4C=C3)cc2)n1 [BODIPY-labeled probe, 4a]", "> 1000 nM"),
]

* * *

# tested_on: Serine/threonine-protein kinase PAK 4 (Homo sapiens)
# Sequence (O96013 whole entry): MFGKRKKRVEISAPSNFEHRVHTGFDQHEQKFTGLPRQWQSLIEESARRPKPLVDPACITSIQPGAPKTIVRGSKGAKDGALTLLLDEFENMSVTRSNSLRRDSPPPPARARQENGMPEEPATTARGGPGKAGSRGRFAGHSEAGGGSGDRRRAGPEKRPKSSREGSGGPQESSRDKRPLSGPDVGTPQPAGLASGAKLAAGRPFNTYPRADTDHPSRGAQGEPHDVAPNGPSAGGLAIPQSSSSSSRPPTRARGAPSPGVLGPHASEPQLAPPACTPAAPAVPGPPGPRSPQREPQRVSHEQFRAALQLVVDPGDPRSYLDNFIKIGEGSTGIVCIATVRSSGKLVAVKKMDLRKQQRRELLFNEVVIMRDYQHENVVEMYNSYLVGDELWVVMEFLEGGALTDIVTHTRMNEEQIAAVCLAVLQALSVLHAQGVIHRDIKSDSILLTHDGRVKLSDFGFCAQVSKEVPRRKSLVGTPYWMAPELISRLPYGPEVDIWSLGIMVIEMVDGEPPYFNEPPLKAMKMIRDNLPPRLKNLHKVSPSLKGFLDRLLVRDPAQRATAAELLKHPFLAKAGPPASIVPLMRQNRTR

# compound, tested_on, Kd
rows = [
    ("Cc1ccc(NC(=O)c2cccc(C(F)(F)F)c2)cc1Nc1ncccc1-c1ncnc(Nc2ccc(OCCNC(=O)CCCCNC(=O)CCC3=[N+]4B(F)n5c(C)cc(C)c5C=C4C=C3)cc2)n1 [BODIPY-labeled probe, 4a]", "Serine/threonine-protein kinase PAK 4 (Homo sapiens)", "> 1 µM"),
]

* * *

The following are reported IC50 results, target or system Serine/threonine-protein kinase PAK 5 (Homo sapiens) (UniProt Q9P286).

# compound, IC50
records = [
    ("Cc1ccc(NC(=O)c2cccc(C(F)(F)F)c2)cc1Nc1ncccc1-c1cc(Nc2ccc(OCCNC(=O)COCCOCCOCCOCCN)cc2)ncn1 [Amine compound, 13a]", "> 10 µM"),
    ("Cc1ccc(NC(=O)c2cccc(C(F)(F)F)c2)cc1Nc1ncccc1-c1ncnc(Nc2ccc(OCCNC(=O)COCCOCCOCCOCCN)cc2)n1 [Amine compound, 12a]", "> 10 µM"),
]

* * *

# tested_on: Mitogen-activated protein kinase kinase kinase 5 (Homo sapiens)
# Sequence (Q99683 whole entry): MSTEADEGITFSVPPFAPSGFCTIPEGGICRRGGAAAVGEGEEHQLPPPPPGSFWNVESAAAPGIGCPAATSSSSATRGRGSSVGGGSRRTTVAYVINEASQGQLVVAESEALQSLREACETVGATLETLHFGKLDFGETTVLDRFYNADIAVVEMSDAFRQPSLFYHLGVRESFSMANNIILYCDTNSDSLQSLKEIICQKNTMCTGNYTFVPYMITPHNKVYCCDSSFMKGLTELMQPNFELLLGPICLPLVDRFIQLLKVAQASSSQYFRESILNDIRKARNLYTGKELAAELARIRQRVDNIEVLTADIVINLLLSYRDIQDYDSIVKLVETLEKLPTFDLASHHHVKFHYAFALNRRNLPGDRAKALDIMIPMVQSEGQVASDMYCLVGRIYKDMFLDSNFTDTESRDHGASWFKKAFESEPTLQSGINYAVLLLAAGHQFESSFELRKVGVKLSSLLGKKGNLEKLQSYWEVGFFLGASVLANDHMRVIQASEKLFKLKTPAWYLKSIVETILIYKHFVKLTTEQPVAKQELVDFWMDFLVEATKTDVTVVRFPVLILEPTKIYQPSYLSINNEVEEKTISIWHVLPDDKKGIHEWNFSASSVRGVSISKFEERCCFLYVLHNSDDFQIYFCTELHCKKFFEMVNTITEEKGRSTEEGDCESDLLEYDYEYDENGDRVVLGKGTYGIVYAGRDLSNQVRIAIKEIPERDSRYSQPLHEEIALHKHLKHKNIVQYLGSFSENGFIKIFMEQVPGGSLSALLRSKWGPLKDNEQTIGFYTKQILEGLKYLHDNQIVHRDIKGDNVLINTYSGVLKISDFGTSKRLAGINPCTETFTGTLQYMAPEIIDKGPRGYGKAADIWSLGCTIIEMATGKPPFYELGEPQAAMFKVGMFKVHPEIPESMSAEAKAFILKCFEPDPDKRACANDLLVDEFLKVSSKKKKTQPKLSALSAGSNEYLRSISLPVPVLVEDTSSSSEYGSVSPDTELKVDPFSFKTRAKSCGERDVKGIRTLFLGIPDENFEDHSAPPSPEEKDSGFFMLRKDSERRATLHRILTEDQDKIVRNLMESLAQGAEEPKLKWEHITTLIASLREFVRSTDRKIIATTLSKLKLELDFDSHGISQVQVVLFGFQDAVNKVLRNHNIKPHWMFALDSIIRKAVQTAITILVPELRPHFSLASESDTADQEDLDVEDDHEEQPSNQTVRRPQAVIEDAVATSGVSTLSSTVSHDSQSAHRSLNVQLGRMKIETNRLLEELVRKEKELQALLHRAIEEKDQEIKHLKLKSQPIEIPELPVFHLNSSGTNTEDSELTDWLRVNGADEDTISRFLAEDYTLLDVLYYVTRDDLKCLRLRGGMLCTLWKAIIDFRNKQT
# experiment_summary: In Vitro Activity Assay
# setup_conditions: pH 7.5

# compound, Kd
rows = [
    ("Cc1ccc(NC(=O)c2cccc(C(F)(F)F)c2)cc1Nc1ncccc1-c1ncnc(Nc2ccc(OCCNC(=O)CCCCNC(=O)CCC3=[N+]4B(F)n5c(C)cc(C)c5C=C4C=C3)cc2)n1 [BODIPY-labeled probe, 4a]", "> 1000 nM"),
]

* * *

# tested_on: Tyrosine-protein kinase Lck (Homo sapiens, UniProt P06239)
# Sequence (P06239 whole entry): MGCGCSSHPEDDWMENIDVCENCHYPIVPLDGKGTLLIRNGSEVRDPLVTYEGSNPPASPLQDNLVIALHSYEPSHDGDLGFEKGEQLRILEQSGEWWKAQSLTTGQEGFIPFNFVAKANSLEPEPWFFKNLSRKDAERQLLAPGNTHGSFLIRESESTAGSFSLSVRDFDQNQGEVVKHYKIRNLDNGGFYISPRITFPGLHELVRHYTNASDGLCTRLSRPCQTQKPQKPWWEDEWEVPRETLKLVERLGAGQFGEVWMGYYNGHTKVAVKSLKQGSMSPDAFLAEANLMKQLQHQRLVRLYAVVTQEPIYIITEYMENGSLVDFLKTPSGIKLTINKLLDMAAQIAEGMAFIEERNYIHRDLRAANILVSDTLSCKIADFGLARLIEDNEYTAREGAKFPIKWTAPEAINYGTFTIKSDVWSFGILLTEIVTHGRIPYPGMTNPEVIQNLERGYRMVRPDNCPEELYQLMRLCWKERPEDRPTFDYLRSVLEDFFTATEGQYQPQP
pKd: −log10 of the molar value.

# compound, pKd
records = [
    ("Cc1ccc(NC(=O)c2cccc(C(F)(F)F)c2)cc1Nc1ncccc1-c1ncnc(Nc2ccc(OCCNC(=O)CCCCNC(=O)CCC3=[N+]4B(F)n5c(C)cc(C)c5C=C4C=C3)cc2)n1 [BODIPY-labeled probe, 4a]", 7.70),
]

* * *

# tested_on: Tyrosine-protein kinase HCK (Homo sapiens, UniProt P08631)
# Sequence (P08631 whole entry): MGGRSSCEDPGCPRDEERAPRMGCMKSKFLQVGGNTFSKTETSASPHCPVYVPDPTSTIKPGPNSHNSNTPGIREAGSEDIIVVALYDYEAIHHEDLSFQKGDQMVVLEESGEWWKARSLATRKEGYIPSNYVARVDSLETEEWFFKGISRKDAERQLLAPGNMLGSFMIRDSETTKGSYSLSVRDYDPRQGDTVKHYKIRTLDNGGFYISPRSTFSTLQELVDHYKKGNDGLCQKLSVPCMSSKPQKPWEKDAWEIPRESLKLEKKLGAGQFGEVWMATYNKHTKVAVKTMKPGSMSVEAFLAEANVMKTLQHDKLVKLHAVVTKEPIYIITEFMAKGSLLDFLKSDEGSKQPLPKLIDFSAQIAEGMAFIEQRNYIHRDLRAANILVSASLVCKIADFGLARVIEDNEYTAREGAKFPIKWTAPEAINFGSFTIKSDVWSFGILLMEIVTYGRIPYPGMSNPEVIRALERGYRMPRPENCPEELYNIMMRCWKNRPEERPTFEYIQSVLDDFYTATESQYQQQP
pKd: −log10 of the molar value.

# compound, pKd
rows = [
    ("Cc1ccc(NC(=O)c2cccc(C(F)(F)F)c2)cc1Nc1ncccc1-c1ncnc(Nc2ccc(OCCNC(=O)CCCCNC(=O)CCC3=[N+]4B(F)n5c(C)cc(C)c5C=C4C=C3)cc2)n1 [BODIPY-labeled probe, 4a]", 8.06),
]

* * *

IC50 listing for selected compounds.
# tested_on: Mitogen-activated protein kinase 1 (Homo sapiens, UniProt P28482)
# Sequence (P28482 whole entry): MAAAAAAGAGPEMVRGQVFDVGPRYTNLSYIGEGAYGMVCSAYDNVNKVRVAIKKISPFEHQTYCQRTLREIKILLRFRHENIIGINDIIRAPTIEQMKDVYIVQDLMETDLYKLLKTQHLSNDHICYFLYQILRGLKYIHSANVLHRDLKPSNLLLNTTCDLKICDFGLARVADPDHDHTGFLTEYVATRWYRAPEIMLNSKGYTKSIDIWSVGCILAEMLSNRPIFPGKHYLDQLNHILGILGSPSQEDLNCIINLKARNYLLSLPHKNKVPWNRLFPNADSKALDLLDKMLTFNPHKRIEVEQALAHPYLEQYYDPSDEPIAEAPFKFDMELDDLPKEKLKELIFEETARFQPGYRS
# experiment_summary: In Vitro Activity Assay
# setup_conditions: pH 7.5

# compound, tested_on, IC50
rows = [
    ("Cc1ccc(NC(=O)c2cccc(C(F)(F)F)c2)cc1Nc1ncccc1-c1cc(Nc2ccc(OCCNC(=O)COCCOCCOCCOCCN)cc2)ncn1 [Amine compound, 13a]", "Mitogen-activated protein kinase 1 (Homo sapiens, UniProt P28482)", "> 10 µM"),
    ("Cc1ccc(NC(=O)c2cccc(C(F)(F)F)c2)cc1Nc1ncccc1-c1ncnc(Nc2ccc(OCCNC(=O)COCCOCCOCCOCCN)cc2)n1 [Amine compound, 12a]", "Mitogen-activated protein kinase 1 (Homo sapiens, UniProt P28482)", "> 10 µM"),
]

* * *

Reported pIC50 values are given for each entry in this list.
# tested_on: Tyrosine-protein kinase HCK (Homo sapiens, UniProt P08631)
pIC50: −log10 of the molar value.

# molecule, pIC50
records = [
    ("Cc1ccc(NC(=O)c2cccc(C(F)(F)F)c2)cc1Nc1ncccc1-c1cc(Nc2ccc(OCCNC(=O)COCCOCCOCCOCCN)cc2)ncn1 [Amine compound, 13a]", 8.20),
    ("Cc1ccc(NC(=O)c2cccc(C(F)(F)F)c2)cc1Nc1ncccc1-c1ncnc(Nc2ccc(OCCNC(=O)COCCOCCOCCOCCN)cc2)n1 [Amine compound, 12a]", 8.02),
]

* * *

# tested_on: Serine/threonine-protein kinase PAK 5 (Homo sapiens)
pKd: −log10 of the molar value.

# compound, pKd
records = [
    ("Cc1ccc(NC(=O)c2cccc(C(F)(F)F)c2)cc1Nc1ncccc1-c1ncnc(Nc2ccc(OCCNC(=O)CCCCNC(=O)CCC3=[N+]4B(F)n5c(C)cc(C)c5C=C4C=C3)cc2)n1 [BODIPY-labeled probe, 4a]", "< 6.00"),
]

* * *

pIC50: −log10 of the molar value.
This section lists pIC50 readings for Proto-oncogene tyrosine-protein kinase Src (Gallus gallus).
property_measured: pIC50

# molecule, tested_on, property_measured, val
data = [
    ("Cc1ccc(NC(=O)c2cccc(C(F)(F)F)c2)cc1Nc1ncccc1-c1cc(Nc2ccc(OCCNC(=O)COCCOCCOCCOCCN)cc2)ncn1 [Amine compound, 13a]", "Proto-oncogene tyrosine-protein kinase Src (Gallus gallus)", "pIC50", 8.24),
    ("Cc1ccc(NC(=O)c2cccc(C(F)(F)F)c2)cc1Nc1ncccc1-c1ncnc(Nc2ccc(OCCNC(=O)CCCCNC(=O)CCC3=[N+]4B(F)n5c(C)cc(C)c5C=C4C=C3)cc2)n1 [BODIPY-labeled probe, 4a]", "Proto-oncogene tyrosine-protein kinase Src (Gallus gallus)", "pIC50", 7.60),
    ("Cc1ccc(NC(=O)c2cccc(C(F)(F)F)c2)cc1Nc1ncccc1-c1ncnc(Nc2ccc(OCCNC(=O)COCCOCCOCCOCCN)cc2)n1 [Amine compound, 12a]", "Proto-oncogene tyrosine-protein kinase Src (Gallus gallus)", "pIC50", 8.48),
]
